compounds and their reported IC50
- EXPERIMENTAL SYSTEM: menin-MLL interaction (Homo sapiens, UniProt O00255)
- Sequence (O00255 whole entry): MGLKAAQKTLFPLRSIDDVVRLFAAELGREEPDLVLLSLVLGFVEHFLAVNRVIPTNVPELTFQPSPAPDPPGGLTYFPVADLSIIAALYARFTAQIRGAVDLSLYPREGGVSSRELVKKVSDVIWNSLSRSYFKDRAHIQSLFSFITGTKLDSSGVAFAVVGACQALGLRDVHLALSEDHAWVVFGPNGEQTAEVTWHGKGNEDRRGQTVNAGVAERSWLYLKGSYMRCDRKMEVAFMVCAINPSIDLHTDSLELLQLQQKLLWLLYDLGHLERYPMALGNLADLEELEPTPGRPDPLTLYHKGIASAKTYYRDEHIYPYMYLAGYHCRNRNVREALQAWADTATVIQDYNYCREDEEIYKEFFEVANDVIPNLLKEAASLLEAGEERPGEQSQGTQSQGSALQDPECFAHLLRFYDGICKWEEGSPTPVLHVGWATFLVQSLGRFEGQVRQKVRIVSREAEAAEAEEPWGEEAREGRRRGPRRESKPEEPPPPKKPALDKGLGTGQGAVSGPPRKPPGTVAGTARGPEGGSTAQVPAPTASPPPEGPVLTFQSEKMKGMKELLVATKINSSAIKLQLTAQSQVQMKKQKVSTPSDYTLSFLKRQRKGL
- MEASUREMENT NOTES: Fluorescence polarization (FP) competition assay of the menin-MLL interaction
- ASSAY SETUP: inhibition of the menin-MLL interaction; read-out: IC50 values for Table 1 inhibitors of menin

Guide cases for IC50, answers given:
# COMPOUND, OBS VALUE
data = [
    ("Cc1c(CN2CCC(Nc3ncnc4sc(CC(F)(F)F)cc34)CC2)ccc2c1cc(C#N)n2CCN1CCC(NC(=O)/C=C/CN(C)C)CC1 [Compound 27]", "< 30 nM"),
    ("C=CC(=O)N1CC2(CCN(CCn3c(C#N)cc4c(C)c(CN5CCC(Nc6ncnc7sc(CC(F)(F)F)cc67)CC5)ccc43)C2)C1 [Compound 182]", "30 to 100 nM"),
    ("C=CC(=O)Nc1ccc(CCn2c(C#N)cc3c(C)c(CN4CCC(Nc5ncnc6sc(CC(F)(F)F)cc56)CC4)ccc32)cc1S(C)(=O)=O [Compound 105]", "< 30 nM"),
    ("C=CC(=O)N1CC2(CCN(CCn3c(C#N)cc4c(C)c(CN5CCC(Nc6ncnc7sc(CC(F)(F)F)cc67)CC5)ccc43)CC2)C1 [Compound 184]", "< 30 nM"),
    ("C=CC(=O)Nc1cccc(CCn2c(C#N)cc3c(C)c(CN4CCC(Nc5ncnc6sc(CC(F)(F)F)cc56)CC4)ccc32)c1 [Compound 190]", "100 to 1000 nM"),
    ("C=CC(=O)N1CCN(CCCn2c(C#N)cc3cc(CN4CCC(Nc5ncnc6sc(CC(F)(F)F)cc56)CC4)ccc32)CC1 [Compound 2]", "30 to 100 nM"),
    ("C=CC(=O)N1CCC2(CN(CCn3c(C#N)cc4c(C)c(CN5CCC(Nc6ncnc7sc(CC(F)(F)F)cc67)CC5)ccc43)C2)C1 [Compound 176]", "30 to 100 nM"),
    ("C=CS(=O)(=O)N1CCN(CCn2c(C#N)cc3c(C)c(CN4CCC(Nc5ncnc6sc(CC(F)(F)F)cc56)CC4)ccc32)C[C@@H]1C [Compound 230]", "< 30 nM"),
    ("C=CC(=O)N1CCC2(CCN(CCn3c(C#N)cc4c(C)c(CN5CCC(Nc6ncnc7sc(CC(F)(F)F)cc67)CC5)ccc43)C2)C1 (stereo not shown) [Compound 172]", "30 to 100 nM"),
    ("C=CC(=O)NCc1cc(Cn2c(C#N)cc3c(C)c(CN4CCC(Nc5ncnc6sc(CC(F)(F)F)cc56)CC4)ccc32)n[nH]1 [Compound 10]", "30 to 100 nM"),
]

# input Give me measured IC50, please, for this compound: C=CC(=O)N1CCC(C(O)Cn2c(C#N)cc3c(C)c(CN4CCC(Nc5ncnc6sc(CC(F)(F)F)cc56)CC4)ccc32)CC1 (stereo not shown) [Compound 210]
# output 100 to 1000 nM

# input Look up and report measured IC50 for this entry: C=CC(=O)Nc1ccc(CCn2c(C#N)cc3c(C)c(CN4CCC(Nc5ncnc6sc(CC(F)(F)F)cc56)CC4)ccc32)cc1P(=O)(C(C)C)C(C)C [Compound 206]
# output 100 to 1000 nM

# input Look up IC50 of C=CC(=O)Nc1cn(CCn2c(C#N)cc3c(C)c(CN4CCC(Nc5ncnc6sc(CC(F)(F)F)cc56)CC4)ccc32)cn1 [Compound 192] and report it.
# output 100 to 1000 nM

All figures here come from patent USRE49687E1.
